All figures here come from patent US20190177431A1.

Tgt: T1, extracellular domain of human TF protein (human, UniProt P13726 34-251)
T1 construct: range 34-251; Limits 34-251 are stated for the immunogen; also called the extracellular domain protein of TF; TF antigen
Experiment Description: ELISA, coated TF extracellular domain
Exercise: state measured pEC50 for each of the binders provided.
The value called pEC50 is obtained by taking minus log10 of the concentration in mol/L.

pEC50 reported for this binder TF-mAb-H29 (antibody, V domains shown, Humanized) VH: EVQLVQSGAEVKKPGESLKISCKGSGYSFTSYWMNWVRQMPGKGLEWMGMIYPADSETRLNQKFKDQATLSVDKSISTAYLQWSSLKASDTAMYYCAREDYGSSDYWGQGTTVTVSS VL: EIVLTQSPATLSLSPGERATLSCSASSSVSYMNWYQQKPGQAPRIWIYGISNLASGIPARFSGSGSGTDFTLTISSLEPEDFAVYYCQQKSSFPWTFGGGTKVEIK : 10.75

Record summary for TF-mAb-H43 (antibody, V domains shown, Humanized) VH: QVQLVQSGSELKKPGASVKVSCKASGYSFISYWMNWVRQAPGQGLEWIGMIYPADSETRLNQKFKDRAVLSVDKSVSTAYLQICSLKAEDTAVYYCAREDYGSSDYWGQGTTVTVSS VL: DIQLTQSPSSLSASVGDRVTITCSASSSVSYMNWYQQKPGKSPKIWIYGISNLASGVPSRFSGSGSGTDFTLTISSLQPEDFATYYCQQKSSFPWTFGGGTKVEIK : reported pEC50 = 10.94
